Recorded composite z-score values for a group of compounds are listed next.
experimental.system: Left-right determination factor 2 (Homo sapiens) (UniProt O00292)
Sequence (O00292 whole entry, looked up): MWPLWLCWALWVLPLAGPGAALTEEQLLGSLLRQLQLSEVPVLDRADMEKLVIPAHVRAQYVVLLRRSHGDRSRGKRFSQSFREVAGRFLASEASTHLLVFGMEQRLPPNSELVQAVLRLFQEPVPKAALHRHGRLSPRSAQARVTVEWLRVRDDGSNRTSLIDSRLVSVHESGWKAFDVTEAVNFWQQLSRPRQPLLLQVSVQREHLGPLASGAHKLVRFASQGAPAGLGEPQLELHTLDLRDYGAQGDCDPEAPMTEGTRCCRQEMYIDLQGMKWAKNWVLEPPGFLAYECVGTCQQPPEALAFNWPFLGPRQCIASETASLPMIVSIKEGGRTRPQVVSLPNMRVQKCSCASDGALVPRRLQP
assay: LEFTY2 binders on small-molecule microarrays, primary screen, biochemical, small-molecule microarray, 635 nm fluorescence scan (AID 1110)
experimental.setup: LEFTY2 binding, higher = more signal
I only need the number, thanks.

CCCc1cc2c(n1Cc1cc(F)cc(F)c1)C(C)C1CN(C(=O)c3ccccc3)C(C)(C(=O)OC)C21 (stereo not drawn) : 0.225
CC(CO)N1C(=O)[C@@H]2C3C(=O)OCCC/C=C\[C@H]3OC23C=CCN(C(C)(C)C)C(=O)[C@@H]13 (stereo partly drawn) : -0.0466
O=C(NCCO)C1=C[C@H](Oc2ccccc2I)[C@@H](O)[C@H](N(Cc2ccco2)C(=O)Cc2ccccc2)C1 : 0.51
O=C(CS)NCCCCCCNC(=O)[C@@H]1C[C@@H]2C(=O)N[C@@H](Cc3ccccc3)C(=O)N2[C@@H]1c1cccc(OCCO)c1 : 0.934

Return reported composite z-score for target or system Left-right determination factor 2 (Homo sapiens) (UniProt O00292), item COc1cc2c(cc1O)C(C1CC1)N(Cc1sc3ccccc3c1Cl)CC2 (stereo not drawn) . -0.423

Return reported composite z-score for target or system Left-right determination factor 2 (Homo sapiens) (UniProt O00292), item O=C1c2ccccc2[C@](Cc2ccccc2I)(C(=O)NCCN2CCOCC2)[C@H](c2ccc(CO)cc2)N1Cc1ccccc1Cl . 0.945

Return reported composite z-score for target or system Left-right determination factor 2 (Homo sapiens) (UniProt O00292), item C=CCC(OC(C)=O)[C@@H]1[C@@H](N(Cc2cccc3ccccc23)C(=O)c2ccc(-c3ccccc3)cc2)c2cc(OCCCO)ccc2N1C(=O)c1ccc2ccccc2c1 (stereo partly drawn) . -0.164

Return reported composite z-score for target or system Left-right determination factor 2 (Homo sapiens) (UniProt O00292), item C=CCNC(=O)[C@@H]1[C@H]2C(=O)O[C@H](c3ccccc3)[C@H](c3ccccc3)N2[C@H](c2ccccc2OCCO)[C@@]12C(=O)N(C(=O)OCCOC)c1ccccc12 . 0.877

Return reported composite z-score for target or system Left-right determination factor 2 (Homo sapiens) (UniProt O00292), item CC(=O)NCCCC[C@@H]1NC(=O)[C@H]2C[C@@H](C(=O)NCCCCCCNC(=O)CS)[C@@H](c3ccc(O)cc3)N2C1=O . -0.747

Return reported composite z-score for target or system Left-right determination factor 2 (Homo sapiens) (UniProt O00292), item COCCOC(=O)N1C(=O)[C@@]2(c3cc(C#Cc4ccc(OC)cc4)ccc31)[C@H](c1ccc(O)cc1)N1[C@H](c3ccccc3)[C@H](c3ccccc3)OC(=O)[C@H]1[C@@H]2C(=O)N1CCc2cc(OC)c(OC)cc2C1 . 0.471

Return reported composite z-score for target or system Left-right determination factor 2 (Homo sapiens) (UniProt O00292), item COCCOC(=O)N1C(=O)[C@@]2(c3cc(C#CCC(C(=O)OC)C(=O)OC)ccc31)[C@H](C(=O)Nc1nc3ccccc3s1)[C@H]1C(=O)O[C@H](c3ccccc3)[C@H](c3ccccc3)N1[C@@H]2c1ccccc1OCCO . 0.6

Return reported composite z-score for target or system Left-right determination factor 2 (Homo sapiens) (UniProt O00292), item COCCOC(=O)N1C(=O)[C@@]2(c3cc(C#CCCO)ccc31)[C@H](C(=O)N1CCCCCCC1)[C@H]1C(=O)O[C@H](c3ccccc3)[C@H](c3ccccc3)N1[C@@H]2c1ccc(OCCO)cc1 . 1.01

Return reported composite z-score for target or system Left-right determination factor 2 (Homo sapiens) (UniProt O00292), item Cc1ccc(S[C@]2(C(=O)O)CC(=O)N(C(C)C)[C@@H]2c2ccc(CO)cc2I)cc1 . -0.195

---

assay: MM1S myeloma cell viability, profiling panel, resazurin fluorescence, basal, 24 h, PK04 Diversity Set (AID 1174);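 further: MM1S multiple myeloma cell line; test concentration not given here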
experimental.setup: higher = more signal, called active from +8 up or from −8 down
Recorded z-score values for a group of molecules are listed next.
I only need the number, thanks.

CCS[C@H]1[C@@H](C(=O)O)[C@H](c2ccc(C)cc2)N(S(=O)(=O)c2ccc(C)cc2)[C@@H]1CC : -0.751
CN1C(=O)C2C=CC(C(O)C3CC=CCC3)N(N(c3ccccc3)c3ccccc3)C2C1=O (stereo not drawn) : -1.17
COc1cc(Br)cc(C(O)C2C=CC3C(=O)N(C)C(=O)C3N2N2CCCCC2)c1OC (stereo not drawn) : -1.17
Cc1ccc(S[C@]2(C(=O)NCCCN(C)C)CC(=O)N(Cc3ccccc3C(F)(F)F)[C@@H]2c2ccc(CO)cc2)cc1 : 0.515
CCCC[C@H]1OB(O)C[C@H]2C1=C(COC)Cn1c(=O)n(-c3ccccc3)c(=O)n12 : -0.228

Please report z-score for the following molecule: CC(C)N1C(=O)C[C@@](C(=O)NCC(F)(F)F)(c2ccc([N+](=O)[O-])cc2)[C@H]1c1ccc(CO)cc1 1.26

Please report z-score for the following molecule: CCCCCCc1nc(-c2ccc(OC)nc2)cc2c1[Si](C(C)C)(C(C)C)O[C@H]2c1ccccc1 0.0809

Please report z-score for the following molecule: COC(=O)[C@@]1(Cc2ccc(OC)cc2)[C@@H]2C(=CC(=O)[C@H]2CC(=O)C(=O)N2CCCC2)CN1C(=O)c1ccccc1 -0.846

---

assay: PSAC antagonists in infected red cells, primary screen, cell-based, P. falciparum Indochina, OD700, 1 h (AID 1154)
experimental.setup: P. falciparum Indochina infected RBC osmotic lysis, higher = more signal, called active from +8 up or from −8 down
Recorded z-score values for a group of molecules are listed next.
I only need the number, thanks.

Take a look at these entries with their results.
Cc1ccc(S[C@]2(C(=O)NC3CC3)CC(=O)N(Cc3ccccc3)[C@@H]2c2ccc(CO)cc2I)cc1 : 7.63
COCCOC(=O)N1C(=O)[C@@]2(c3cc(C#CCNC(N)=O)ccc31)[C@H](C(=O)Nc1nc3ccccc3s1)[C@H]1C(=O)O[C@H](c3ccccc3)[C@H](c3ccccc3)N1[C@@H]2c1ccc(OCCO)cc1 : 2.48
C#C[C@H](O[Si](C#Cc1ccc(Oc2ccccc2)cc1)(C(C)C)C(C)C)c1ccccc1 : 0.353
[N-]=[N+]=NCc1ccccc1[C@@H]1OC(c2ccc(OCCCO)cc2)=N[C@]1(Cc1ccccc1)C(N)=O : 21.9
O=C1C[C@@](C(=O)NC2CC2)(c2ccc([N+](=O)[O-])cc2)[C@@H](c2ccc(CO)cc2I)N1C1CCCCC1 : 16.5

Please report z-score for the following molecule: COCCOC(=O)N1C(=O)[C@@]2(c3cc(C#Cc4ccc(OC)cc4)ccc31)[C@H](c1ccc(O)cc1)N1[C@H](c3ccccc3)[C@H](c3ccccc3)OC(=O)[C@H]1[C@@H]2C(=O)N1CCc2cc(OC)c(OC)cc2C1 1.92

Please report z-score for the following molecule: CCCC[C@H]1OB(O)C[C@H]2C1=C(COC)Cn1c(=O)n(-c3ccccc3)c(=O)n12 0.43

---

assay: FRG1 promoter luciferase signal modulators, primary screen, FRG1 inhibition for FSHD, cell-based, C2C12 myotubes, firefly/Renilla luciferase, luminescence (AID 1084)
experimental.setup: higher = more signal, called active from +8 up or from −8 down
Use Y when the recorded z-score is no lower than -0.3; use N when it is lower.

Examples with answers:
C=CCNC(=O)[C@@H]1[C@H]2C(=O)O[C@H](c3ccccc3)[C@H](c3ccccc3)N2[C@H](c2ccc(OCCO)cc2)[C@@]12C(=O)Nc1ccc(C#CCC(C(=O)OC)C(=O)OC)cc12 : Y
C=CCC(OC(C)=O)[C@@H]1[C@@H](N(Cc2cc3ccccc3o2)C(=O)c2cccc3ccccc23)c2cc(OCCCO)ccc2N1C(=O)c1ccc(-c2ccccc2)cc1 (stereo partly specified) : N
[N-]=[N+]=Nc1ccccc1[C@@H]1OC(c2ccc(OCCCO)cc2)=N[C@]1(CCS(=O)(=O)c1ccccc1)C(N)=O : Y
O=C1O[C@@H](c2ccccc2)[C@@H](c2ccccc2)N2[C@@H](c3ccccc3OCCO)[C@]3(C(=O)Nc4ccc(C#CC5=CCCCC5)cc43)[C@@H](C(=O)N3CCCCCCC3)[C@H]12 : Y
C=CCN1C(=O)[C@@]2(Cc3ccccc31)N=C(c1ccc(OCCCO)cc1)O[C@H]2c1ccccc1 : N

Next, consider the following compound.
Could you verify whether the entry COCCOC(=O)N1C(=O)[C@@]2(c3ccccc31)[C@H](c1ccc(O)cc1)N1[C@H](c3ccccc3)[C@H](c3ccccc3)OC(=O)[C@H]1[C@@H]2C(=O)Nc1nc2ccccc2s1 shows z-score of no less than -0.3? N

---

assay: inhibitors of hydroxyurea-induced Chk1 phosphorylation, primary screen, imaging, HeLa, phospho-Chk1 nuclear intensity (AID 1187); further: test concentration not given here
experimental.setup: hydroxyurea-induced phospho-Chk1 immunofluorescence imaging, higher = more signal
Use 1 when the recorded z-score is no lower than -0.4; use -1 when it is lower.

Examples with answers:
CCOC(=O)C[C@H]1[C@H](OC(=O)c2ccc(C(=O)c3ccccc3)cc2)[C@@H](NC(=O)c2ccccc2)c2cc(OCCCO)ccc2N1C(=O)Cc1ccc(OC)cc1 : 1
COCCOC(=O)N1C(=O)[C@@]2(c3cc(C#CCCO)ccc31)[C@H](C(=O)N1CCCCCCC1)[C@H]1C(=O)O[C@H](c3ccccc3)[C@H](c3ccccc3)N1[C@@H]2c1ccc(OCCO)cc1 : 1
C=CCNC(=O)[C@@H]1[C@H]2C(=O)O[C@H](c3ccccc3)[C@H](c3ccccc3)N2[C@H](c2ccc(O)cc2)[C@@]12C(=O)N(C(=O)OCCOC)c1ccc(C#CCNC(N)=O)cc12 : -1
CCC[C@@H]1C[C@@]1(CCC)[C@@H](NS(=O)(=O)c1cccc2cccnc12)c1ccc(Cl)cc1 : 1
O[C@@H](Cc1ccccc1)[C@H]1C2C=CCCC=C2CN1Cc1cccc(Cl)c1 (some centres undefined) : 1

Could you verify whether the entry COc1ccc(C(=O)Nc2ccc(CN3C(=O)[C@]4(O[C@H](CCO)[C@@H]([Si](C)(C)c5ccc(OC)cc5)[C@@H]4C)c4ccccc43)cc2)cc1 shows z-score of no less than -0.4? 1

Could you verify whether the entry COCCOC(=O)N1C(=O)[C@@]2(c3cc(C#Cc4ccc(OC)cc4)ccc31)[C@H](c1ccc(OCCO)cc1)N1[C@H](c3ccccc3)[C@H](c3ccccc3)OC(=O)[C@H]1[C@@H]2C(=O)N1CCN(c2ncccn2)CC1 shows z-score of no less than -0.4? 1

Could you verify whether the entry CCCC#C[Si](O[C@H](CC)c1cn(Cc2cccc(Cl)c2)nn1)(C(C)C)C(C)C shows z-score of no less than -0.4? -1
